Hello, the source for this data is patent US20250296938A1, in case you need it.

target: KRas G12D mutant (Homo sapiens, UniProt P01116, G12D); construct: fused on or other part: His tag, used for capture on nickel-coated plates; assay: Ras GTP binding domain inhibition assay (Cy3-GTP/Cy5-GTP competition); settings: at 20 μM, without SOS; read-out: KRas G12D mutant: % inh.
# maps each entry to its inhibition at 20 µM

Use these answered entries as a reference point.
COMPOUND	PARAMETER_MEASURED	RESULT
COc1cccc(-c2sc3nc(-c4nc(C)cn4C)nc(N[C@@H]4CC[C@H](OC)C4)c3c2C)c1F [drawing 1031]	inhibition at 20 µM	1 to 25%
Cn1ccc(-c2sc3nc(-c4nccn4C)nc(O)c3c2-c2ccccc2)n1 [drawing 1039]	inhibition at 20 µM	26 to 50%
Oc1nc(-c2cn3ccccc3n2)nc2c(-c3ccccn3)csc12 [drawing 951]	inhibition at 20 µM	26 to 50%

Now consider a different compound.
Would you kindly share the measured inhibition at 20 µM for COC1CCN(c2nc(-c3nccn3C)nc3sc(-c4cnc(C5CC5)o4)c(-c4ccccc4)c23)C1 (stereo not shown) [drawing 977] ?
51 to 75%

====

target: K-Ras (G12D) (Homo sapiens, UniProt P01116, G12D); test: MicroScale Thermophoresis (MST), GTP affinity; format: binding
PARAMETER_MEASURED: Kd (nM)
Please state the figure in nM; there is no need to write the unit.

Requested read-out: Kd. Entry: `Nc1nc2c(ncn2[C@@H]2O[C@H](COP(=O)(O)OP(=O)(O)OP(=O)(O)O)[C@@H](O)[C@H]2O)c(=O)[nH]1`
244

====

molecular target: Rac-1 (Homo sapiens); assay: Ras GTP binding domain inhibition assay (Cy3-GTP/Cy5-GTP competition); conditions: without SOS, read-out: Rac-1: % inh.
PARAMETER_MEASURED: inhibition at 20 µM

Below: 6 compounds and their reported inhibition at 20 µM.
COMPOUND	inhibition at 20 µM
COCCCN(C)c1nc(-c2nccn2C)nc2sc(-c3ccn(C)n3)c(-c3ccccc3)c12 [drawing 1000]	26 to 50%
CO[C@H]1CCC(Nc2nc(-c3nccn3C)nc3sc(-c4ccn(C)n4)c(-c4ccccc4)c23)C1 (some centres unmarked) [drawing 995]	51 to 75%
COc1c(O)nc(-c2ccccn2)nc1Oc1cnn(C)c1 [drawing 938]	76 to 100%
COc1cc(-c2sc3nc(-c4nccn4C)nc(N4CCC(OC)C4)c3c2-c2ccccc2)ccn1 (centres unmarked) [drawing 980]	26 to 50%
O=C(NCc1ccccc1)c1nc(-c2ccccn2)nc(O)c1O [drawing 956]	51 to 75%
COC1CCN(c2nc(-c3nccn3C)nc3sc(-c4ccn(C)n4)c(-c4ccccc4)c23)C1 (centres unmarked) [drawing 998]	26 to 50%

For the compound shown here, COC1CCN(c2nc(-c3nccn3C)nc3sc(-c4ccc(N)nc4C)c(-c4ccccc4)c23)C1 (centres unmarked) [drawing 953] , give the reported inhibition at 20 µM.
0%

Returns the measured inhibition at 20 µM for the input compound. Input: COc1c(O)nc(-c2ccccn2)nc1Oc1ccc2ncccc2c1 [drawing 939]
51 to 75%

====

test system: KRas wild type; experiment: Ras GTP binding domain inhibition assay (Cy3-GTP/Cy5-GTP competition); set-up: species or system human; details: 20 μM; without SOS
PARAMETER_MEASURED: KRas wild type: % inh.

Worked set:
COMPOUND	RESULT
Oc1nc(-c2ncc3ccccn23)nc2c(-c3ccccn3)csc12 [drawing 834]	C (51-75% inhibition)
COc1ccc(-c2c(-c3ccn(C)n3)sc3nc(-c4nccn4C)nc(N4CCC(OC)C4)c23)cc1 (centres unmarked) [drawing 868]	0 (0% inhibition)
CO[C@@H]1CCC(Nc2nc(-c3nccn3C)nc3sc(-c4ccn(C)n4)c(-c4ccccc4)c23)C1 (some centres unmarked) [drawing 859]	A (1-25% inhibition)
COCC1CN(c2nc(-c3nccn3C)nc3sc(-c4cccc(OC)c4F)c(-c4ccc(OC)cc4)c23)C1 [drawing 805]	C (51-75% inhibition)
COC1CCN(c2nc(-c3nccn3C)nc3sc(-c4ccn(C)n4)c(-c4ccccc4)c23)C1 (centres unmarked) [drawing 863]	A (1-25% inhibition)
COCCNc1nc(-c2nccn2C)nc2sc(-c3cccc(OC)c3)c(-c3ccc(OC)cc3)c12 [drawing 875]	B (26-50% inhibition)

What value of KRas wild type: % inh. has been reported for the following compound? COCCNc1nc(-c2nccn2C)nc2sc(-c3cccc(OC)c3Cl)c(-c3ccccc3)c12 [drawing 872]
B (26-50% inhibition)
